- subject of test: Alpha-2C adrenergic receptor (Homo sapiens)
- method notes: compounds altering alpha2C-coupled GIRK flux – cell-based, HEK293 alpha2C/GIRK1/2, thallium flux, primary screen (AID 624);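 note: slope of fluorescence ratio to pre-addition baseline per second over 15 to 24 s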
- condition info: thallium flux BTC fluorescence, at 10 µM, actives lie on both sides
Please go through the items and note down their slope.
Answer using only a numeral; do not append any unit.

## Input Entry under review: CCOC(=O)C1CCCN(Cc2nc(N)nc(Nc3ccc(C)cc3)n2)C1 (centres undefined) . Reported slope?
## Output 0.00446

## Input Entry under review: CCSc1nnc(NC(=O)c2ccccn2)s1 . Reported slope?
## Output 0.00493

## Input Entry under review: O=C(c1ncn[nH]1)N1CCN(c2nc(-c3ccccc3)cs2)CC1 . Reported slope?
## Output 0.00549

## Input Entry under review: Fc1ccc(C(c2nnnn2Cc2ccco2)N2CCN(C3CCCCC3)CC2)cc1 (centres undefined) . Reported slope?
## Output 0.00429

====

- method notes: inhibitors of TNFa-induced NFkB p65 translocation, primary screen, imaging, HUVEC, MLSMR starter and 10KST1 sets (AID 438);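 note: compound added about 3h40 before a 20 min TNFalpha stimulation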
- condition info: HUVEC TNFa-induced p65 nuclear translocation; measured here: nuclei count (cytotoxicity indicator), at 2.08 µM
readout type: cell count
Answer using only a numeral; do not append any unit.

## Input Entry under review: Cn1c(SCC(=O)N2CCN(c3cccc(Cl)c3)CC2)nnc1-c1ccncc1 . Reported cell count?
## Output 689

## Input Entry under review: COc1ccc2[nH]c(=O)c(CN(Cc3cccs3)S(=O)(=O)c3cccc4nsnc34)cc2c1 . Reported cell count?
## Output 510

## Input Entry under review: O=C(Nc1cccc(Cl)c1)N1CCN(Cc2ccccc2)CC1 . Reported cell count?
## Output 652

## Input Entry under review: OC(CCN1CCOCC1)(c1ccc(Cl)cc1)C1CCCCC1 (centres undefined) . Reported cell count?
## Output 663

## Input Entry under review: CCOCCCn1c(=NC(C)=O)c(C(=O)OCC)cc2c(=O)n3ccccc3nc21 . Reported cell count?
## Output 473

## Input Entry under review: CC(C)COc1ccc(C2NC(=O)NC2=O)cc1 (centres undefined) . Reported cell count?
## Output 718

## Input Entry under review: Cc1cccnc1NC(=O)CCCN1C(=O)c2ccccc2C1=O . Reported cell count?
## Output 366

## Input Entry under review: CN1CCN(CCCNC(=O)Cn2ncc3c4ccccc4n(C)c3c2=O)CC1 . Reported cell count?
## Output 479

## Input Entry under review: CCCCCn1c(N2CCN(Cc3ccccc3)CC2)nc2c1c(=O)[nH]c(=O)n2C . Reported cell count?
## Output 675

## Input Entry under review: COC(=O)c1cn(NC(=O)c2cccnc2)c(=O)c2ccccc12 . Reported cell count?
## Output 364

## Input Entry under review: CCOc1ccc(C(=O)Nc2ccc(N3CCN(C)CC3)cc2)cc1Br . Reported cell count?
## Output 434

## Input Entry under review: CCN(CC)C1CCCCC1NS(=O)(=O)c1ccc(Cl)cc1 (centres undefined) . Reported cell count?
## Output 528

## Input Entry under review: O=C(c1cc(C2CC2)on1)N1CCN(C(c2ccccc2)c2ccccc2)CC1 . Reported cell count?
## Output 731

## Input Entry under review: Cc1noc(/C=C/N(C)C)c1S(=O)(=O)N1CCCC(C(=O)N2CCc3ccccc32)C1 (centres undefined) . Reported cell count?
## Output 620

====

- subject of test: Alpha-2C adrenergic receptor (Homo sapiens) (UniProt P18825)
- Sequence (P18825 whole entry, looked up): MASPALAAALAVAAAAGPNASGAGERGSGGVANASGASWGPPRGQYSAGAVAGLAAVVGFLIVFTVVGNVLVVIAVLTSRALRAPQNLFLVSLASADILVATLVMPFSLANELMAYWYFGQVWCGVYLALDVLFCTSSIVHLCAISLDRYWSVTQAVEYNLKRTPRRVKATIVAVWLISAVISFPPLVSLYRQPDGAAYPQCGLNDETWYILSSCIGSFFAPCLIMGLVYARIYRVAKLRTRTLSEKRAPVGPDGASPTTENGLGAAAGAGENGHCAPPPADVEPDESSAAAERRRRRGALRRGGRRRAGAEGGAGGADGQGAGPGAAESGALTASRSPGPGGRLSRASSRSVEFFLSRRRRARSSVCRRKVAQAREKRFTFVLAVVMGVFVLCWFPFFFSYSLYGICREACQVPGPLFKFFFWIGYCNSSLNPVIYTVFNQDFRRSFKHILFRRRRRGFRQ
- method notes: compounds altering alpha2C-coupled GIRK flux – cell-based, HEK293 alpha2C/GIRK1/2, thallium flux, primary screen (AID 624);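 note: slope of fluorescence ratio to pre-addition baseline per second over 15 to 24 s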
- condition info: thallium flux BTC fluorescence, at 10 µM, actives lie on both sides
slope of 0.006 or higher: 1. Under 0.006: 0.

## Input Check if slope >= 0.006 (inclusive). Item: O=C(CSc1nnnn1-c1ccccc1)c1cc2ccccc2oc1=O
## Output 1

## Input Check if slope >= 0.006 (inclusive). Item: Cc1cc(N2CCC3(CC2)OCCO3)n2nc(C)c(-c3ccc(Cl)cc3)c2n1
## Output 1

## Input Check if slope >= 0.006 (inclusive). Item: CC(C)CC(c1nnnn1CC1CCCO1)N1CCN(Cc2ccc3c(c2)OCO3)CC1 (configuration not stated)
## Output 1

## Input Check if slope >= 0.006 (inclusive). Item: COC(=O)c1[nH]c2ccc(C)cc2c1NC(=O)CN1CCCc2ccccc21
## Output 0

## Input Check if slope >= 0.006 (inclusive). Item: Cc1cccc(C2CC(c3ccccc3)Nc3nc(N)nn32)c1 (configuration not stated)
## Output 1

## Input Check if slope >= 0.006 (inclusive). Item: C/C=C/COC(=O)c1[nH]c2c(c1C)C(=O)CC(c1ccco1)C2 (configuration not stated)
## Output 1

## Input Check if slope >= 0.006 (inclusive). Item: c1cn(C23CC4CC(CC(C4)C2)C3)cn1
## Output 0

## Input Check if slope >= 0.006 (inclusive). Item: O=C(Nc1ccncc1)c1cccc(F)c1
## Output 0

## Input Check if slope >= 0.006 (inclusive). Item: CCn1c(Cc2ccccc2)nnc1SCC(=O)Nc1cc(C)on1
## Output 1

## Input Check if slope >= 0.006 (inclusive). Item: CC1=C(C(=O)Nc2cccnc2)C(c2ccc(C(C)C)cc2)n2ncnc2N1 (configuration not stated)
## Output 0

## Input Check if slope >= 0.006 (inclusive). Item: CCN(CC(=O)Nc1ccc(S(N)(=O)=O)cc1)S(=O)(=O)c1cc(C)ccc1OC
## Output 0

## Input Check if slope >= 0.006 (inclusive). Item: Cc1ccc(C(=O)CSc2n[nH]c(-c3ccco3)n2)cc1C
## Output 0

## Input Check if slope >= 0.006 (inclusive). Item: CCOC(=O)c1cc2c(=O)n3ccccc3nc2n(CC(C)C)c1=NC(=O)c1ccco1
## Output 0

## Input Check if slope >= 0.006 (inclusive). Item: COc1ccc(N2CCN(C(c3ccccc3)c3sc4nc(C)nn4c3O)CC2)cc1 (configuration not stated)
## Output 0

## Input Check if slope >= 0.006 (inclusive). Item: COc1ccc(C(=O)Nc2ccc(C)cn2)c(OC)c1
## Output 1

## Input Check if slope >= 0.006 (inclusive). Item: CCCCn1c(SCC(=O)N2CC(=O)Nc3ccccc32)nnc1-c1ccoc1C
## Output 0

## Input Check if slope >= 0.006 (inclusive). Item: COc1ccc(S(=O)(=O)N2CCSC2c2ccccc2)cc1 (configuration not stated)
## Output 0

## Input Check if slope >= 0.006 (inclusive). Item: COc1ccc2cc3cc(C(=O)NCC4CCCO4)oc3nc2c1 (configuration not stated)
## Output 1

## Input Check if slope >= 0.006 (inclusive). Item: O=C(Nc1ccc(N2CCOCC2)cc1)c1cc2ccccc2o1
## Output 0

## Input Check if slope >= 0.006 (inclusive). Item: CCOc1ccc(N2CC(C(=O)Nc3cccc(C)c3C)CC2=O)cc1 (configuration not stated)
## Output 0

## Input Check if slope >= 0.006 (inclusive). Item: O=C(Cn1nnc2ccccc2c1=O)NC1CCCc2ccccc21 (configuration not stated)
## Output 0

## Input Check if slope >= 0.006 (inclusive). Item: CCN1CCN(C(c2ccc(F)cc2)c2nnnn2Cc2cccs2)CC1 (configuration not stated)
## Output 0

## Input Check if slope >= 0.006 (inclusive). Item: COc1ccc(-c2cc(C(F)(F)F)n3nc(C(=O)N4CCOCC4)nc3n2)cc1
## Output 0

## Input Check if slope >= 0.006 (inclusive). Item: CCOc1ccc(N(CC(=O)NCc2ccco2)S(=O)(=O)c2ccc(OC)c(OC)c2)cc1
## Output 1

## Input Check if slope >= 0.006 (inclusive). Item: O=C(CSc1nc(-c2ccco2)cc(C(F)(F)F)n1)NCCCn1ccnc1
## Output 1

====

- subject of test: Voltage-gated potassium channel subunit beta-2 (Rattus norvegicus) (UniProt P62483)
- Sequence (P62483 whole entry, looked up): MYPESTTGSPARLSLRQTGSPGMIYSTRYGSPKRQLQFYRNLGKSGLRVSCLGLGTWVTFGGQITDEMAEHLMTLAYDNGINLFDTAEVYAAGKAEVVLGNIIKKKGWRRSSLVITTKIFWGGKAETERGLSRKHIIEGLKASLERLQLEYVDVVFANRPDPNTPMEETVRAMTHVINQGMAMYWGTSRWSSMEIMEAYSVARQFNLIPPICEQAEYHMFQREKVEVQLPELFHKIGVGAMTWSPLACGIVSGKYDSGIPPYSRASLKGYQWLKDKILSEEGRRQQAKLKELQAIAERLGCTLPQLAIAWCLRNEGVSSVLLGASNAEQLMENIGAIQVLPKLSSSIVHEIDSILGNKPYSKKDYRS
- method notes: enhancers of rat Kvbeta2 NADPH turnover – biochemical, NADPH fluorescence, primary screen (AID 623);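 note: fluorescence intensity change per second fitted from 20 to 320 s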
- condition info: Recombinant KvBeta, NADPH fluorescence decrease slope, 10 min; at 10 µM; stronger effect = lower value
Please go through the items and note down their NADPH fluorescence slope.
Answer using only a numeral; do not append any unit.

## Input Value wanted: NADPH fluorescence slope (Voltage-gated potassium channel subunit beta-2 (Rattus norvegicus) (UniProt P62483)) of entry Cn1c2c(c(=O)n(C)c1=O)C(CC(=O)Nc1ccccc1)C(=O)N2 (stereo not given)
## Output -3.5e-05

## Input Value wanted: NADPH fluorescence slope (Voltage-gated potassium channel subunit beta-2 (Rattus norvegicus) (UniProt P62483)) of entry CCOc1ccc(CN2C(=O)c3ccccc3C2C(=O)NCc2cccnc2)cc1 (stereo not given)
## Output -1.6e-05

## Input Value wanted: NADPH fluorescence slope (Voltage-gated potassium channel subunit beta-2 (Rattus norvegicus) (UniProt P62483)) of entry COc1ccc(NC(=O)COc2ccccc2)c(OC)c1
## Output -4.6e-05

## Input Value wanted: NADPH fluorescence slope (Voltage-gated potassium channel subunit beta-2 (Rattus norvegicus) (UniProt P62483)) of entry CCOC(=O)COc1ccc(C2NC(C(=O)O)CS2)cc1 (stereo not given)
## Output -1.3e-05

## Input Value wanted: NADPH fluorescence slope (Voltage-gated potassium channel subunit beta-2 (Rattus norvegicus) (UniProt P62483)) of entry COc1ccc(C2c3sc(=O)[nH]c3SC3C4CCC(C4)C23)cc1 (stereo not given)
## Output 3.9e-05

## Input Value wanted: NADPH fluorescence slope (Voltage-gated potassium channel subunit beta-2 (Rattus norvegicus) (UniProt P62483)) of entry Cc1ccc(C(C(=O)NC2CCCCC2)N2CCOCC2)cc1 (stereo not given)
## Output -0.000297

## Input Value wanted: NADPH fluorescence slope (Voltage-gated potassium channel subunit beta-2 (Rattus norvegicus) (UniProt P62483)) of entry Cc1ccc(NC(=O)c2ccco2)c(NC(=O)c2cccs2)c1
## Output 2e-06

## Input Value wanted: NADPH fluorescence slope (Voltage-gated potassium channel subunit beta-2 (Rattus norvegicus) (UniProt P62483)) of entry CC(C)OC(=O)CSc1nnc(-c2ccc(O)cc2)n1Cc1ccccc1
## Output -4.5e-05

## Input Value wanted: NADPH fluorescence slope (Voltage-gated potassium channel subunit beta-2 (Rattus norvegicus) (UniProt P62483)) of entry CN(C)S(=O)(=O)c1ccc(C(=O)NCc2cccs2)cc1
## Output -2.1e-05

## Input Value wanted: NADPH fluorescence slope (Voltage-gated potassium channel subunit beta-2 (Rattus norvegicus) (UniProt P62483)) of entry COC(=O)c1ccc(C2CC(=O)Nc3cc(OC)c(OC)c(OC)c32)cc1 (stereo not given)
## Output -3.3e-05

## Input Value wanted: NADPH fluorescence slope (Voltage-gated potassium channel subunit beta-2 (Rattus norvegicus) (UniProt P62483)) of entry O=C(NCC1COc2ccccc2O1)c1ccccc1 (stereo not given)
## Output 3.5e-06

## Input Value wanted: NADPH fluorescence slope (Voltage-gated potassium channel subunit beta-2 (Rattus norvegicus) (UniProt P62483)) of entry COc1ccccc1S(=O)(=O)Cc1ccc(C(=O)N2CCN(c3ccc(C)cc3)C(C)C2)o1 (stereo not given)
## Output -2.9e-05

## Input Value wanted: NADPH fluorescence slope (Voltage-gated potassium channel subunit beta-2 (Rattus norvegicus) (UniProt P62483)) of entry COc1ccc(Cl)cc1-c1n[nH]c(=S)o1
## Output -3.6e-05

## Input Value wanted: NADPH fluorescence slope (Voltage-gated potassium channel subunit beta-2 (Rattus norvegicus) (UniProt P62483)) of entry Cc1ccc(C)c(S(=O)(=O)NCc2cccnc2)c1
## Output -5.5e-05

## Input Value wanted: NADPH fluorescence slope (Voltage-gated potassium channel subunit beta-2 (Rattus norvegicus) (UniProt P62483)) of entry Cc1ccc(NC(=O)CSc2nnc(CNC(=O)c3c(F)cccc3Cl)o2)cc1
## Output -7.5e-06

## Input Value wanted: NADPH fluorescence slope (Voltage-gated potassium channel subunit beta-2 (Rattus norvegicus) (UniProt P62483)) of entry CCn1c(C)nc2cc(C(=O)OCCC(F)(F)F)ccc21
## Output -2.2e-05

## Input Value wanted: NADPH fluorescence slope (Voltage-gated potassium channel subunit beta-2 (Rattus norvegicus) (UniProt P62483)) of entry COCCn1nnnc1CN(CCCN1CCOCC1)Cc1cc2c(C)ccc(C)c2[nH]c1=O
## Output 3e-05

## Input Value wanted: NADPH fluorescence slope (Voltage-gated potassium channel subunit beta-2 (Rattus norvegicus) (UniProt P62483)) of entry Cc1nnc(SCc2ccccc2F)n1NCc1cccs1
## Output -4.7e-05

## Input Value wanted: NADPH fluorescence slope (Voltage-gated potassium channel subunit beta-2 (Rattus norvegicus) (UniProt P62483)) of entry CCOC(=O)N1CCN(c2c(N3CCN(c4ccccn4)CC3)c(=O)c2=O)CC1
## Output -5.8e-06

## Input Value wanted: NADPH fluorescence slope (Voltage-gated potassium channel subunit beta-2 (Rattus norvegicus) (UniProt P62483)) of entry COc1ccc(CCNC(=O)CSc2nncn2N)cc1OC
## Output -1.6e-05

## Input Value wanted: NADPH fluorescence slope (Voltage-gated potassium channel subunit beta-2 (Rattus norvegicus) (UniProt P62483)) of entry CCOCCCn1c(=S)[nH]c2cc3c(cc2c1=O)OCO3
## Output -5.9e-05

## Input Value wanted: NADPH fluorescence slope (Voltage-gated potassium channel subunit beta-2 (Rattus norvegicus) (UniProt P62483)) of entry COc1ccc2cc(C(=O)NCc3ccco3)c(=Nc3ccc(C(=O)O)cc3)oc2c1
## Output -5.2e-05

## Input Value wanted: NADPH fluorescence slope (Voltage-gated potassium channel subunit beta-2 (Rattus norvegicus) (UniProt P62483)) of entry CC(C)CC1NC(=O)N(CC(=O)N2CCN(S(=O)(=O)c3ccc(Cl)cc3)CC2)C1=O (stereo not given)
## Output 4.2e-06

## Input Value wanted: NADPH fluorescence slope (Voltage-gated potassium channel subunit beta-2 (Rattus norvegicus) (UniProt P62483)) of entry CCOC(=O)N1CCC(NC(=O)c2cc3c(=O)n(C)c4ccccc4c3n2C)CC1
## Output -6.5e-05

## Input Value wanted: NADPH fluorescence slope (Voltage-gated potassium channel subunit beta-2 (Rattus norvegicus) (UniProt P62483)) of entry CC1CN(S(=O)(=O)c2ccc(Cl)c(C(F)(F)F)c2)CC(C)O1 (stereo not given)
## Output -4e-05
